// data source = ChEMBL document CHEMBL1134636

# Target Or System: Nociceptin receptor (Homo sapiens)
# Protocol Details: Efficacy for human ORL1 receptor expressing HEK293 cell membrane
# Assay type: functional, cell-based
Peptide text beside a SMILES is read from it.
Assay Metric: Emax (%)

C[C@H](NC(=O)CNC(=O)[C@@H](NC(=O)[C@H](Cc1ccccc1)NC(=O)CNC(=O)CNC(=O)[C@@H](N)Cc1ccccc1)[C@@H](C)O)C(=O)N[C@@H](CCCN=C(N)N)C(=O)N[C@@H](CCCCN)C(=O)N[C@@H](CS)C(=O)N[C@@H](C)C(=O)N[C@@H](CCCN=C(N)N)C(=O)N[C@@H](CCCCN)C(=O)N[C@@H](CS)C(N)=O (H-FGGFTGARKCARKC-NH2)	105
C[C@@H](O)[C@H](NC(=O)[C@H](Cc1ccccc1)NC(=O)CNC(=O)CNC(=O)[C@@H](N)Cc1ccccc1)C(=O)NCC(=O)N[C@H]1CSSC[C@@H](C(=O)N[C@@H](CCCN=C(N)N)C(=O)N[C@@H](CCCCN)C(N)=O)NC(=O)[C@H](CO)NC(=O)[C@H](CCCCN)NC(=O)[C@H](CCCN=C(N)N)NC1=O (HELM PEPTIDE1{F.G.G.F.T.G.C.R.K.S.C.R.K.[am]}$PEPTIDE1,PEPTIDE1,7:R3-11:R3$$$V2.0)	120
C[C@H](NC(=O)[C@H](CO)NC(=O)[C@H](CCCCN)NC(=O)[C@H](CCCN=C(N)N)NC(=O)[C@H](CS)NC(=O)CNC(=O)[C@@H](NC(=O)[C@H](Cc1ccccc1)NC(=O)CNC(=O)CNC(=O)[C@@H](N)Cc1ccccc1)[C@@H](C)O)C(=O)N[C@@H](CCCN=C(N)N)C(=O)N[C@@H](CCCCN)C(=O)N[C@@H](CS)C(N)=O (H-FGGFTGCRKSARKC-NH2)	101
C[C@@H]1NC(=O)CNC(=O)[C@H]([C@@H](C)O)NC(=O)[C@H](Cc2ccccc2)NC(=O)CNC(=O)CNC(=O)[C@H](Cc2ccccc2)NC(=O)[C@@H](N)CSSC[C@@H](C(=O)N[C@@H](C)C(=O)N[C@@H](CCCN=C(N)N)C(=O)N[C@@H](CCCCN)C(N)=O)NC(=O)[C@H](CCCCN)NC(=O)[C@H](CCCN=C(N)N)NC1=O (HELM PEPTIDE1{C.F.G.G.F.T.G.A.R.K.C.A.R.K.[am]}$PEPTIDE1,PEPTIDE1,1:R3-11:R3$$$V2.0)	81
C[C@@H](O)[C@H](NC(=O)[C@H](Cc1ccccc1)NC(=O)CNC(=O)CNC(=O)[C@@H](N)Cc1ccccc1)C(=O)NCC(=O)N[C@@H](CS)C(=O)N[C@@H](CCCN=C(N)N)C(=O)N[C@@H](CCCCN)C(=O)N[C@@H](CO)C(=O)N[C@@H](CS)C(=O)N[C@@H](CCCN=C(N)N)C(=O)N[C@@H](CCCCN)C(N)=O (H-FGGFTGCRKSCRK-NH2)	99

* * *

# Target Or System: Nociceptin receptor (Homo sapiens)
# Protocol Details: Efficacy for human ORL1 receptor expressing HEK293 cells
# Type: functional, cell-based
pEC50: −log10 of the molar value. Peptide text beside a SMILES is read from it.
Assay Metric: pEC50

C[C@@H](O)[C@H](NC(=O)[C@H](Cc1ccccc1)NC(=O)CNC(=O)CNC(=O)[C@@H](N)Cc1ccccc1)C(=O)NCC(=O)N[C@@H](CS)C(=O)N[C@@H](CCCN=C(N)N)C(=O)N[C@@H](CCCCN)C(=O)N[C@@H](CO)C(=O)N[C@@H](CS)C(=O)N[C@@H](CCCN=C(N)N)C(=O)N[C@@H](CCCCN)C(N)=O (H-FGGFTGCRKSCRK-NH2)	7.58
CC(C)C[C@H](NC(=O)[C@H](CCCCN)NC(=O)[C@H](CCCN=C(N)N)NC(=O)[C@H](C)NC(=O)[C@H](CO)NC(=O)[C@H](CCCCN)NC(=O)[C@H](CCCN=C(N)N)NC(=O)[C@H](C)NC(=O)CNC(=O)[C@@H](NC(=O)[C@H](Cc1ccccc1)NC(=O)CNC(=O)CNC(=O)[C@@H](N)Cc1ccccc1)[C@@H](C)O)C(N)=O (H-FGGFTGARKSARKL-NH2)	8.71
C[C@@H]1NC(=O)[C@H](CO)NC(=O)[C@H](CCCCN)NC(=O)[C@H](CCCNC(=N)N)NC(=O)[C@@H](NC(=O)CNC(=O)[C@@H](NC(=O)[C@H](Cc2ccccc2)NC(=O)CNC(=O)CNC(=O)[C@@H](N)Cc2ccccc2)[C@@H](C)O)CSSC[C@@H](C(N)=O)NC(=O)[C@H](CCCCN)NC(=O)[C@H](CCCNC(=N)N)NC1=O (HELM PEPTIDE1{F.G.G.F.T.G.C.R.K.S.A.R.K.C.[am]}$PEPTIDE1,PEPTIDE1,7:R3-14:R3$$$V2.0)	7.60

* * *

# Target Or System: Nociceptin receptor (Homo sapiens, UniProt P41146)
# Sequence (P41146 whole entry): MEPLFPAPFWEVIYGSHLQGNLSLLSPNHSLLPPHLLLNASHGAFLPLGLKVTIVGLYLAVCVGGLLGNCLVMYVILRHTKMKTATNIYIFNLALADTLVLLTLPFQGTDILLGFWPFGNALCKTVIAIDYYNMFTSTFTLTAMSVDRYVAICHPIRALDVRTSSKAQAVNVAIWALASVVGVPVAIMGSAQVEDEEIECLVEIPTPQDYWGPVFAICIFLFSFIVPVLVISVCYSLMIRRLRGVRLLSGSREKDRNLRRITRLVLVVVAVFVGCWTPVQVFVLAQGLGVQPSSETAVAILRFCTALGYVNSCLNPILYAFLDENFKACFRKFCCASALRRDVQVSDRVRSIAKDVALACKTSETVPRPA
# Protocol Details: Displacement of [3H]NC from human ORL1 receptor expressing HEK293 cell membrane
# Type: cell membranes
pIC50: −log10 of the molar value. Peptide text beside a SMILES is read from it.
Assay Metric: pIC50

C[C@H](NC(=O)CNC(=O)[C@@H](NC(=O)[C@H](Cc1ccccc1)NC(=O)CNC(=O)CNC(=O)[C@@H](N)Cc1ccccc1)[C@@H](C)O)C(=O)N[C@@H](CCCNC(=N)N)C(=O)N[C@@H](CCCCN)C(=O)N[C@@H](CS)C(=O)N[C@@H](C)C(=O)N[C@@H](CCCNC(=N)N)C(=O)N[C@@H](CCCCN)C(=O)N[C@@H](CS)C(N)=O (H-FGGFTGARKCARKC-NH2)	9.33
C[C@H](NC(=O)[C@@H]1CSSC[C@H](NC(=O)[C@@H](NC(=O)[C@H](Cc2ccccc2)NC(=O)CNC(=O)CNC(=O)[C@@H](N)Cc2ccccc2)[C@@H](C)O)C(=O)N[C@@H](C)C(=O)N[C@@H](CCCNC(=N)N)C(=O)N[C@@H](CCCCN)C(=O)N1)C(=O)N[C@@H](CCCNC(=N)N)C(=O)N[C@@H](CCCCN)C(N)=O (HELM PEPTIDE1{F.G.G.F.T.C.A.R.K.C.A.R.K.[am]}$PEPTIDE1,PEPTIDE1,6:R3-10:R3$$$V2.0)	9.08
C[C@@H](O)[C@H](NC(=O)[C@H](Cc1ccccc1)NC(=O)CNC(=O)CNC(=O)[C@@H](N)Cc1ccccc1)C(=O)NCC(=O)N[C@@H](CS)C(=O)N[C@@H](CCCN=C(N)N)C(=O)N[C@@H](CCCCN)C(=O)N[C@@H](CO)C(=O)N[C@@H](CS)C(=O)N[C@@H](CCCN=C(N)N)C(=O)N[C@@H](CCCCN)C(N)=O (H-FGGFTGCRKSCRK-NH2)	8.06
C[C@@H]1NC(=O)CNC(=O)[C@H]([C@@H](C)O)NC(=O)[C@H](Cc2ccccc2)NC(=O)CNC(=O)CNC(=O)[C@H](Cc2ccccc2)NC(=O)[C@@H](N)CSSC[C@@H](C(=O)N[C@@H](CCCNC(=N)N)C(=O)N[C@@H](CCCCN)C(N)=O)NC(=O)[C@H](CO)NC(=O)[C@H](CCCCN)NC(=O)[C@H](CCCNC(=N)N)NC1=O (HELM PEPTIDE1{C.F.G.G.F.T.G.A.R.K.S.C.R.K.[am]}$PEPTIDE1,PEPTIDE1,1:R3-12:R3$$$V2.0)	6.41
C[C@H](NC(=O)[C@H](CO)NC(=O)[C@H](CCCCN)NC(=O)[C@H](CCCNC(=N)N)NC(=O)[C@H](CS)NC(=O)CNC(=O)[C@@H](NC(=O)[C@H](Cc1ccccc1)NC(=O)CNC(=O)CNC(=O)[C@@H](N)Cc1ccccc1)[C@@H](C)O)C(=O)N[C@@H](CCCNC(=N)N)C(=O)N[C@@H](CCCCN)C(=O)N[C@@H](CS)C(N)=O (H-FGGFTGCRKSARKC-NH2)	7.43

* * *

# Target Or System: Nociceptin receptor (Homo sapiens)
# Protocol Details: Displacement of [3H]NC from human ORL1 receptor expressing HEK293 cell membrane
# Format: cell membranes
pIC50: −log10 of the molar value. Peptide text beside a SMILES is read from it.
Could you label it yes if measured pIC50 is 9 or higher, and no otherwise?

C[C@@H](O)[C@H](NC(=O)[C@H](Cc1ccccc1)NC(=O)CNC(=O)CNC(=O)[C@@H](N)Cc1ccccc1)C(=O)NCC(=O)N[C@H]1CSSC[C@@H](C(=O)N[C@@H](CCCN=C(N)N)C(=O)N[C@@H](CCCCN)C(N)=O)NC(=O)[C@H](CO)NC(=O)[C@H](CCCCN)NC(=O)[C@H](CCCN=C(N)N)NC1=O (HELM PEPTIDE1{F.G.G.F.T.G.C.R.K.S.C.R.K.[am]}$PEPTIDE1,PEPTIDE1,7:R3-11:R3$$$V2.0)	no
C[C@H](NC(=O)[C@H](CS)NC(=O)[C@H](CCCCN)NC(=O)[C@H](CCCN=C(N)N)NC(=O)[C@H](C)NC(=O)[C@H](CS)NC(=O)[C@@H](NC(=O)[C@H](Cc1ccccc1)NC(=O)CNC(=O)CNC(=O)[C@@H](N)Cc1ccccc1)[C@@H](C)O)C(=O)N[C@@H](CCCN=C(N)N)C(=O)N[C@@H](CCCCN)C(N)=O (H-FGGFTCARKCARK-NH2)	no
CC(C)C[C@H](NC(=O)[C@H](CCCCN)NC(=O)[C@H](CCCN=C(N)N)NC(=O)[C@H](C)NC(=O)[C@H](CO)NC(=O)[C@H](CCCCN)NC(=O)[C@H](CCCN=C(N)N)NC(=O)[C@H](C)NC(=O)CNC(=O)[C@@H](NC(=O)[C@H](Cc1ccccc1)NC(=O)CNC(=O)CNC(=O)[C@@H](N)Cc1ccccc1)[C@@H](C)O)C(N)=O (H-FGGFTGARKSARKL-NH2)	yes
C[C@H](NC(=O)CNC(=O)[C@@H](NC(=O)[C@H](Cc1ccccc1)NC(=O)CNC(=O)CNC(=O)[C@@H](N)Cc1ccccc1)[C@@H](C)O)C(=O)N[C@@H](CCCNC(=N)N)C(=O)N[C@@H](CCCCN)C(=O)N[C@H]1CSSC[C@@H](C(N)=O)NC(=O)[C@H](CCCCN)NC(=O)[C@H](CCCNC(=N)N)NC(=O)[C@H](C)NC1=O (HELM PEPTIDE1{F.G.G.F.T.G.A.R.K.C.A.R.K.C.[am]}$PEPTIDE1,PEPTIDE1,10:R3-14:R3$$$V2.0)	yes
C[C@H](NC(=O)[C@H](CO)NC(=O)[C@H](CCCCN)NC(=O)[C@H](CCCNC(=N)N)NC(=O)[C@@H]1CSSC[C@H](N)C(=O)N[C@@H](Cc2ccccc2)C(=O)NCC(=O)NCC(=O)N[C@@H](Cc2ccccc2)C(=O)N[C@@H]([C@@H](C)O)C(=O)NCC(=O)N1)C(=O)N[C@@H](CCCNC(=N)N)C(=O)N[C@@H](CCCCN)C(N)=O (HELM PEPTIDE1{C.F.G.G.F.T.G.C.R.K.S.A.R.K.[am]}$PEPTIDE1,PEPTIDE1,1:R3-8:R3$$$V2.0)	no
C[C@@H]1NC(=O)[C@H](CO)NC(=O)[C@H](CCCCN)NC(=O)[C@H](CCCNC(=N)N)NC(=O)[C@@H](NC(=O)CNC(=O)[C@@H](NC(=O)[C@H](Cc2ccccc2)NC(=O)CNC(=O)CNC(=O)[C@@H](N)Cc2ccccc2)[C@@H](C)O)CSSC[C@@H](C(N)=O)NC(=O)[C@H](CCCCN)NC(=O)[C@H](CCCNC(=N)N)NC1=O (HELM PEPTIDE1{F.G.G.F.T.G.C.R.K.S.A.R.K.C.[am]}$PEPTIDE1,PEPTIDE1,7:R3-14:R3$$$V2.0)	no
